Reference source for all entries: the M2OR odorant receptor database

Biological target: UniProt Q8VGJ5
Sequence (whole entry): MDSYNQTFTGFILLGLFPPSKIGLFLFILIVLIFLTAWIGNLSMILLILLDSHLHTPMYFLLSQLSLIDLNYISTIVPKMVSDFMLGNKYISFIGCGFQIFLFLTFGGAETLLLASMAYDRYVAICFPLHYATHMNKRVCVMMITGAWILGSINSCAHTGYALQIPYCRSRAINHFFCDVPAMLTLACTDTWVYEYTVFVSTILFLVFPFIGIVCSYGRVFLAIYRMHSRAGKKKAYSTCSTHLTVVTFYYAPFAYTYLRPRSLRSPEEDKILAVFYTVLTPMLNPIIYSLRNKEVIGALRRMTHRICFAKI
Settings: stereoisomer not certain
Outcomes: Yes for active, No for inactive

| COMPOUND | ASSIGNED_LABEL |
| --- | --- |
| C=CCOC(=O)Cc1ccccc1 | Yes |
| CCC1CCC(=O)O1 (centres undefined) | Yes |
| O=c1cc(O)c2ccccc2o1 | No |
| C=CCc1ccccc1 | No |

---

molecular target: OR2W1 (Homo sapiens); conditions: stereoisomer not certain
Outcomes: active, inactive

| MOL_SMILES | ASSIGNED_LABEL |
| --- | --- |
| O=c1cc(O)c2ccccc2o1 | inactive |
| Cc1c([N+](=O)[O-])c(C)c([N+](=O)[O-])c(C(C)(C)C)c1[N+](=O)[O-] | inactive |
| O=C(O)Cc1ccccc1 | inactive |
| CSSC | inactive |
| OCc1ccco1 | active |
| Cc1ccc(O)c(C)c1 | inactive |
| SCc1ccco1 | active |
| NCC(=O)c1ccccc1 | inactive |
| C=CCc1ccccc1 | inactive |
| Cc1ccccc1O | inactive |
| O=Cc1ccc2c(c1)OCO2 | active |
| O=Cc1ccco1 | inactive |

---

Molecular target: OR5AC2 (Homo sapiens)
Sequence (whole entry): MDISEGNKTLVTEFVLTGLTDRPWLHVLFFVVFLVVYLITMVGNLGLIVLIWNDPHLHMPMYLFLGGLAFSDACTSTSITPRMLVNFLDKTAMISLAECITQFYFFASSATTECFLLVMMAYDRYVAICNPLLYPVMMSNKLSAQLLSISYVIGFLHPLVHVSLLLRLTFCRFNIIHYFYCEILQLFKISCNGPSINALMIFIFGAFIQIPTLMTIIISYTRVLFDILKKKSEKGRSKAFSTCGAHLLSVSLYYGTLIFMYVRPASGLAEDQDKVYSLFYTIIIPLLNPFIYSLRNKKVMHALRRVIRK
Settings: stereoisomer not certain
READOUT_LABEL: odorant receptor agonist call

| MOL_SMILES | VALUE_REPORTED |
| --- | --- |
| O=Cc1ccccc1 | inactive |
| O=CC=Cc1ccccc1 | inactive |
| Cc1c([N+](=O)[O-])c(C)c([N+](=O)[O-])c(C(C)(C)C)c1[N+](=O)[O-] | inactive |
| C=CCOC(=O)Cc1ccccc1 | inactive |
| C=CCc1ccc(OC)cc1 | inactive |

---

target: UniProt L7N210; settings: stereoisomer not certain
Sequence (L7N210 as listed by the source): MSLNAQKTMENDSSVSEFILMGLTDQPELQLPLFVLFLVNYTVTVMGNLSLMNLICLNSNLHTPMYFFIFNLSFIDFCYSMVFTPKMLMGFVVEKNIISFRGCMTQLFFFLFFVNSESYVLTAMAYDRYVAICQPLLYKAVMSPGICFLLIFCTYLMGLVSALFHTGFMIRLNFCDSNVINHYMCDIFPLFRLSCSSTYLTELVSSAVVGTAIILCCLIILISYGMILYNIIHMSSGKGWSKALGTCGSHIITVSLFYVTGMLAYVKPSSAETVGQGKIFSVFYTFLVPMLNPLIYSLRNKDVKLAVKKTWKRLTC
Outcomes: class 1 for active, class 0 for inactive

| MOLECULE | ASSIGNED_LABEL |
| --- | --- |
| C=CCOC(=O)Cc1ccccc1 | class 0 |
| C=CCc1ccccc1 | class 0 |
| CCCCCCC(Br)C(=O)O (stereo not drawn) | class 0 |
| CCCCC(Br)C(=O)O (stereo not drawn) | class 1 |
| Cc1ccc(OC(=O)Cc2ccccc2)cc1 | class 0 |
| O=c1cc(O)c2ccccc2o1 | class 0 |
| CC(C=O)Cc1ccc2c(c1)OCO2 (stereo not drawn) | class 1 |
| O=Cc1ccc2c(c1)OCO2 | class 1 |
